experiment summary: Sulforhodamine B (SRB) cytotoxicity assay
measurement conditions: human, PC3 cells, Viability, -IR, log [concentration] μM 2.09691
test readout: viability at 72 h, 125 µM (%)
Write the answer as a number in %, unit excluded.

Which value of viability at 72 h, 125 µM has been reported for O=C(c1cc(Cc2n[nH]c(=O)c3ccccc23)ccc1F)N1CCN(C(=O)C2CC2)CC1 [Olaparib, reference compound] in the records?
20.2

---

measurement target: Human PARG (Homo sapiens)
Sequence (Q86W56 389-976): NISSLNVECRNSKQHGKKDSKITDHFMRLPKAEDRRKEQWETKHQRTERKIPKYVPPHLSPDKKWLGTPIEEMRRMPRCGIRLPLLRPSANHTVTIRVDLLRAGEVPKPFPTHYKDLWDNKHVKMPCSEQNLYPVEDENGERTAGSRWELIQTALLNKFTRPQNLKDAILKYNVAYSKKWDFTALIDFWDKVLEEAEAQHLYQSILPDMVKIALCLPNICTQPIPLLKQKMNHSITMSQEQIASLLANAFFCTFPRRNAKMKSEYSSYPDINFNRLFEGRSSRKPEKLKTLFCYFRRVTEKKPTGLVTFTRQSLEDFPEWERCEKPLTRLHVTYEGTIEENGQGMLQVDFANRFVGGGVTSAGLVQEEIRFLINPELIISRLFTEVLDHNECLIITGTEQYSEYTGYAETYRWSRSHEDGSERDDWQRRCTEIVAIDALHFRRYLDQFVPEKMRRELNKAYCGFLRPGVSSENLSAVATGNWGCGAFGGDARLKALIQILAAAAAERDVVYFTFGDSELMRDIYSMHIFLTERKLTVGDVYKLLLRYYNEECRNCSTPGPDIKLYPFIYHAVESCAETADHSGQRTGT
Measured pIC50 of individual entries
pIC50 field: float, defined as -log10 of concentration (mol/L).

Fill blank: measured pIC50 of the compound Cn1c(=S)c2[nH]c(SCCN3CCOCC3)nc2n(C)c1=O is ____.
6.40

Now the compound O=c1[nH]c2[nH]c(=S)[nH]c(=S)c2[nH]1
7.00

Continue with Cn1c(=O)c2[nH]c(SCCN3CCOCC3)nc2n(C)c1=O
4.59
